# MEASURED_ON: Recombinant human KIF18A (1-467 His-tagged) protein (Homo sapiens, UniProt Q8NI77)
# Construct: Recombinant human KIF18A (1-467 His-tagged) protein; His
# Sequence (Q8NI77 1-467): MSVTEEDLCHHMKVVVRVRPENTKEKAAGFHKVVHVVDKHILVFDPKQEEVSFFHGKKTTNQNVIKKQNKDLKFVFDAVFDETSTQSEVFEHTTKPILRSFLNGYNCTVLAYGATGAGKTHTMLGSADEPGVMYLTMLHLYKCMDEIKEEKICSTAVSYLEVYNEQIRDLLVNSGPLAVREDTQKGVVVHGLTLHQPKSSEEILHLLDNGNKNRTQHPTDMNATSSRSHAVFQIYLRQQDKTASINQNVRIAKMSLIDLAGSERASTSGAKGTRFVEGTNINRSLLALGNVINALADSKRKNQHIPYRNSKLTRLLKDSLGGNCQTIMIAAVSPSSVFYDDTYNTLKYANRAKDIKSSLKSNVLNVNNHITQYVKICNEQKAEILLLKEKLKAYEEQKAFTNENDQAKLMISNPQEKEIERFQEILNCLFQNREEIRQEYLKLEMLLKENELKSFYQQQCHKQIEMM
# Sequence (P02550 whole entry partner): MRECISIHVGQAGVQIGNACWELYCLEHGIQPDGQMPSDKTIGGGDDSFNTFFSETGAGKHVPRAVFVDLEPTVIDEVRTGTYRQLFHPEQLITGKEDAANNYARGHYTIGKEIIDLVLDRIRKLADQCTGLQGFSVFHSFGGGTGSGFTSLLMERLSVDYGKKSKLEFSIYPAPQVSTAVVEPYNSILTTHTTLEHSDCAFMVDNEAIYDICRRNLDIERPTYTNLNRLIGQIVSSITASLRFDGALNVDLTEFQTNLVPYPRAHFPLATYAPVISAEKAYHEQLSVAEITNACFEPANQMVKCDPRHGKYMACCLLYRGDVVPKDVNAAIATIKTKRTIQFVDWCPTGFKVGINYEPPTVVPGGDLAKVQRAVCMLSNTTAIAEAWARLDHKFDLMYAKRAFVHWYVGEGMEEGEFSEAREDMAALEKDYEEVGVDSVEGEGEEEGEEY
# Sequence (P02554 whole entry partner): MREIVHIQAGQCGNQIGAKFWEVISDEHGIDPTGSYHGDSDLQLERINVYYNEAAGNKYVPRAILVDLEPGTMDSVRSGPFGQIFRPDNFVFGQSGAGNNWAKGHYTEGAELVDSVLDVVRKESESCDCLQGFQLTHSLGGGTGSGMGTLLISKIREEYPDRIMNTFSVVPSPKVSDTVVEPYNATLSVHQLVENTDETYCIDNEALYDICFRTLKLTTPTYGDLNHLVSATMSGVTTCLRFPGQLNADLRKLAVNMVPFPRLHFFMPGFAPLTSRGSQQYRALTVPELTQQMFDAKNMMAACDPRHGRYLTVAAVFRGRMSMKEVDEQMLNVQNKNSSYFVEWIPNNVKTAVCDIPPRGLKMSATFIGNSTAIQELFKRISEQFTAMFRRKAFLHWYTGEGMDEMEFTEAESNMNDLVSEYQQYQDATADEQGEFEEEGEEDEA
# EXPERIMENT_SUMMARY: KIF18A Enzyme Assay: microtubule-stimulated ATPase activity (ADP-Glo)
# STUDY_CONDITIONS: 30 nM KIF18A, 30 μg/mL pig microtubules, 75 μM ATP, ADP-Glo luminescence
OBSERVED_PROPERTY: IC50 (nM)

{"columns": ["MOLECULE", "MEASURED_ON", "OBSERVED_PROPERTY", "MEASUREMENT"],
 "data": [
  ["CC(O)(c1ccc(C(=O)Nc2cccc(N3CCOCC3)n2)c(N2CCC3(CC2)CC3)n1)C(F)(F)F (single isomer, unassigned) [Example 141]", "Recombinant human KIF18A (1-467 His-tagged) protein (Homo sapiens, UniProt Q8NI77)", "IC50", 88],
  ["CC(C)(C)NS(=O)(=O)c1cccc(NC(=O)c2ncc(NC3(CO)CC3)nc2N2CCC3(CC2)CC3)n1 [Example 109]", "Recombinant human KIF18A (1-467 His-tagged) protein (Homo sapiens, UniProt Q8NI77)", "IC50", 79.3],
  ["CC1(C)COC(=O)N1c1cccc(NC(=O)c2ccc(N3C(=O)OCC3(C)C)nc2N2CCC3(CC2)CC3)n1 [Example 161]", "Recombinant human KIF18A (1-467 His-tagged) protein (Homo sapiens, UniProt Q8NI77)", "IC50", 2190],
  ["C[C@@H]1CN(c2cccc(NC(=O)c3ccc(C(F)CO)nc3N3CCC4(CC3)CC4)n2)CCO1 (stereo partly shown) [Example 197]", "Recombinant human KIF18A (1-467 His-tagged) protein (Homo sapiens, UniProt Q8NI77)", "IC50", 180]
]}

---

# MEASURED_ON: Recombinant human KIF18A (1-467 His-tagged) protein (Homo sapiens, UniProt Q8NI77)
# Construct: Recombinant human KIF18A (1-467 His-tagged) protein; His
# EXPERIMENT_SUMMARY: KIF18A Enzyme Assay: microtubule-stimulated ATPase activity (ADP-Glo)
# STUDY_CONDITIONS: 30 nM KIF18A, 30 μg/mL pig microtubules, 75 μM ATP, ADP-Glo luminescence
Rule: IC50 below 900 nM gives Criterion met, anything at or above gives Criterion not met.

{"columns": ["COMPOUND", "ASSIGNED_LABEL"],
 "data": [
  ["CN(C(=O)OC(C)(C)C)C1CCCN(c2cccc(NC(=O)c3ccc(NC(C)(C)CO)nc3N3CCC4(CC3)CC4)n2)C1 (stereo not shown)", "Criterion not met"],
  ["CC(C)(C)NS(=O)(=O)c1cccc(NC(=O)c2ccc([C@@](C)(O)C(F)(F)F)nc2N2CCC3(CC2)CC3)n1 (single isomer, unassigned)", "Criterion met"],
  ["C[C@](O)(c1ccc(C(=O)Nc2cccc(N3CCOCC3)n2)c(N2CCC3(CC2)CC3)n1)C(F)(F)F", "Criterion met"],
  ["CC(C)(CO)Nc1ccc(C(=O)Nc2cccc(N3CCCC3)n2)c(N2CCC3(CC2)CC3)n1", "Criterion met"],
  ["CCN1CCN(c2cccc(NC(=O)c3ccc(NC(C)(C)CO)nc3N3CCC4(CC3)CC4)n2)CC1", "Criterion not met"],
  ["CC(C)(CO)Nc1ccc(C(=O)Nc2cccc(N3C[C@H]4C[C@H]4C3)n2)c(N2CCC3(CC2)CC3)n1", "Criterion met"],
  ["COc1cc(NC(=O)c2ncc(NC(C)(C)CO)nc2N2CCC3(CC2)CC3)nc(N2CCOCC2)c1", "Criterion not met"]
]}

---

# MEASURED_ON: Recombinant human KIF18A (1-467 His-tagged) protein (Homo sapiens)
# Construct: Recombinant human KIF18A (1-467 His-tagged) protein; His
# EXPERIMENT_SUMMARY: KIF18A Enzyme Assay: microtubule-stimulated ATPase activity (ADP-Glo)
# STUDY_CONDITIONS: 30 nM KIF18A, 30 μg/mL pig microtubules, 75 μM ATP, ADP-Glo luminescence
pIC50: −log10 of the molar value.
Rule: pIC50 of 7 or more gives Condition met; anything lower gives Condition not met.

{"columns": ["COMPOUND_STRING", "ASSIGNED_LABEL"],
 "data": [
  ["CC(C)(CO)Nc1ccc(C(=O)Nc2cccc(N3CCN(C4CC4)CC3)n2)c(N2CCC3(CC2)CC3)n1", "Condition not met"],
  ["O=C(Nc1ccc(NS(=O)(=O)CCO)cc1N1CCC2(CC1)CC2)c1cccc(N2CCC(F)(F)CC2)n1", "Condition met"]
]}

---

# MEASURED_ON: Recombinant human KIF18A (1-467 His-tagged) protein (Homo sapiens, UniProt Q8NI77)
# Construct: Recombinant human KIF18A (1-467 His-tagged) protein; His; made in house
# EXPERIMENT_SUMMARY: KIF18A Enzyme Assay: microtubule-stimulated ATPase activity (ADP-Glo)
# Type: biochemical
# STUDY_CONDITIONS: 30 nM KIF18A, 30 μg/mL pig microtubules, 75 μM ATP, ADP-Glo luminescence

{"columns": ["COMPOUND", "IC50 [µM]"],
 "data": [
  ["O=C(Nc1cccc(N2CCOCC2)n1)c1ccc(C(O)(CO)C(F)(F)F)nc1N1CCC2(CC1)CC2 (stereo not drawn) [Example 181]", 0.0699],
  ["CC(C)(CO)Nc1cnc(C(=O)Nc2cccc(N3C[C@@H]4C[C@H]3CO4)n2)c(N2CCC3(CC2)CC3)n1 (racemic) [Example 112]", 0.182],
  ["CC(C)(CO)Nc1ccc(C(=O)Nc2cccc(N3CCC[C@@H](O)C3)n2)c(N2CCC3(CC2)CC3)n1 [Example 216]", 0.0804],
  ["CC(C)(CO)Nc1ccc(C(=O)Nc2cccc(N3CCCC(O)(CO)C3)n2)c(N2CCC3(CC2)CC3)n1 (stereo not drawn) [Example 230]", 0.114],
  ["C[C@@H]1CN(c2cccc(NC(=O)c3ccc(NC(CO)(CO)CO)nc3N3CCC4(CC3)CC4)n2)CCO1 [Example 222]", 0.088],
  ["Cc1cc(NC(=O)c2ccc(N3CC(O)CC3(C)C)nc2N2CCC3(CC2)CC3)nc(N2CCOCC2)c1 (stereo not drawn) [Example 212]", 0.54],
  ["C[C@@H]1CN(c2cccc(NC(=O)c3ccc(C(F)(CO)CO)nc3N3CCC4(CC3)CC4)n2)CCO1 [Example 196]", 0.159],
  ["CC(C)(CO)Nc1cnc(C(=O)Nc2cccc(N3CCOCC3)n2)c(N2CCC3(CC2)CC3)n1 [Example 106]", 0.0844],
  ["CN1CCN(c2cccc(NC(=O)c3ccc(NC(C)(C)CO)nc3N3CCC4(CC3)CC4)n2)CC1 [Example 133]", 0.604],
  ["CC1(C)OCC(c2ccc(C(=O)Nc3cccc(N4CCOCC4)n3)c(N3CCC4(CC3)CC4)n2)(C(F)(F)F)O1 (stereo not drawn) [Example 180]", 0.758],
  ["C[C@@H]1CN(c2cccc(NC(=O)c3ccc(C(C)(O)CO)nc3N3CCC4(CC3)CC4)n2)CCO1 (stereo partly drawn) [Example 166]", 0.0625],
  ["CC(C)(CCO)Nc1ccc(C(=O)Nc2cccc(N3CCO[C@H](CO)C3)n2)c(N2CCC3(CC2)CC3)n1 [Example 210]", 0.239],
  ["CC(C)(CO)Nc1ccc(C(=O)Nc2cc(Cl)cc(N3CCOCC3)n2)c(N2CCC3(CC2)CC3)n1 [Example 152]", 0.0743],
  ["CC(C)(CO)Nc1ccc(C(=O)Nc2cccc(NCCO)n2)c(N2CCC3(CC2)CC3)n1 [Example 226]", 0.392],
  ["COC1CN(c2cccc(NC(=O)c3ccc(NC(C)(C)CO)nc3N3CCC4(CC3)CC4)n2)C1 [Example 145]", 0.168]
]}

---

# MEASURED_ON: Recombinant human KIF18A (1-467 His-tagged) protein (Homo sapiens, UniProt Q8NI77)
# Construct: Recombinant human KIF18A (1-467 His-tagged) protein; His
# EXPERIMENT_SUMMARY: KIF18A Enzyme Assay: microtubule-stimulated ATPase activity (ADP-Glo)
# STUDY_CONDITIONS: 30 nM KIF18A, 30 μg/mL pig microtubules, 75 μM ATP, ADP-Glo luminescence
# Text: KIF18A Enzyme Assay: Microtubule-stimulated ATPase activity assay is used to measure KIF18A enzyme activity after treatment with compound. Compounds were 2-fold serially diluted in DMSO (Sigma Inc) over 22-point concentration range. […] Read luminescence using EnVision microplate reader with ultra-luminescence module (Perkin Elmer Inc). […]
pIC50: −log10 of the molar value.
Some compounds, each annotated with its measured pIC50.
OBSERVED_PROPERTY: pIC50

{"columns": ["COMPOUND", "MEASUREMENT"],
 "data": [
  ["COC(=O)C(F)(C(=O)OC)c1ccc(C(=O)Nc2cccc(S(=O)(=O)NC(C)(C)C)n2)c(N2CCC3(CC2)CC3)n1", 6.62],
  ["CC(C)(CO)Nc1ccc(C(=O)Nc2cccc(N3CCC(F)(F)C3)n2)c(N2CCC3(CC2)CC3)n1", 7.08],
  ["C[C@@H]1CN(c2cccc(NC(=O)c3ccc(NC(C)(CO)CO)nc3N3CCC4(CC3)CC4)n2)CCO1", 7.27],
  ["CC(C)(C)NS(=O)(=O)c1cccc(NC(=O)c2ncc(NC(C)(C)CO)nc2N2CCC3(CC2)CC3)n1", 7.12],
  ["CC(C)(CO)Nc1ccc(C(=O)Nc2cccc(N3CCN(C(=O)OC(C)(C)C)CC3)n2)c(N2CCC3(CC2)CC3)n1", 6.23],
  ["CC(C)(CO)Nc1cnc(C(=O)Nc2cc(Cl)cc(N3CCOCC3)n2)c(N2CCC3(CC2)CC3)n1", 6.95],
  ["CC(C)(C)NS(=O)(=O)c1cccc(NC(=O)c2ccc([C@](C)(O)C(F)(F)F)nc2N2CCC3(CC2)CC3)n1 (single isomer, unassigned)", 6.98],
  ["C[C@H]1CN(c2cccc(NC(=O)c3ccc(NC(C)(C)CO)nc3N3CCC4(CC3)CC4)n2)C[C@H](C)O1 (racemic)", 7.00],
  ["CS(=O)(=O)Cc1ccc(C(=O)Nc2cccc(N3CCC[C@@H](O)C3)n2)c(N2CCC3(CC2)CC3)n1", 7.00],
  ["CC(C)(CO)Nc1ccc(C(=O)Nc2cccc(N3CCOCC3)n2)c(N2CCC3(CC2)CC3)n1", 7.28],
  ["Cc1cc(NC(=O)c2ccc(NC(C)(C)CO)nc2N2CCC3(CC2)CC3)nc(S(=O)(=O)NC(C)(C)C)c1", 6.69],
  ["C[C@@H]1CN(c2cccc(NC(=O)c3ccc(C(O)(CO)C(F)(F)F)nc3N3CCC4(CC3)CC4)n2)CCO1 (some centres unmarked)", 7.10],
  ["COc1cc(NC(=O)c2ccc(NC(C)(C)CO)nc2N2CCC3(CC2)CC3)nc(N2CCOCC2)c1", 6.40],
  ["C[C@@H]1CN(c2cccc(NC(=O)c3ncc(N4C(=O)OCC4(C)C)nc3N3CCC4(CC3)CC4)n2)CCO1", 5.71]
]}
